Molecular target: MAO-A (Homo sapiens, UniProt P21397)
Sequence (P21397 whole entry): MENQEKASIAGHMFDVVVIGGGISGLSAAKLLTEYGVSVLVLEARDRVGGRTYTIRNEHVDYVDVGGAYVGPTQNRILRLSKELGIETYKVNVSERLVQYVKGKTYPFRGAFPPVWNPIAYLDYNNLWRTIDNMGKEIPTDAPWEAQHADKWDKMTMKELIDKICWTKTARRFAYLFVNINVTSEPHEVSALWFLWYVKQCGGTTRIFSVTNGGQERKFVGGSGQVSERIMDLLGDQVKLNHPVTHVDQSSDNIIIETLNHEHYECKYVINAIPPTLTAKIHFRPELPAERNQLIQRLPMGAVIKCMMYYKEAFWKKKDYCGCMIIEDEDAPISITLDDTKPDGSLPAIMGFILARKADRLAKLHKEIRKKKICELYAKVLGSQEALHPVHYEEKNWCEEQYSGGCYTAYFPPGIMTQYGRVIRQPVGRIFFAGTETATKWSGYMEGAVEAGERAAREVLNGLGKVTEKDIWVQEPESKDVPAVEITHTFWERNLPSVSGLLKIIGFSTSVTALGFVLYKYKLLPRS
Assay: Inhibition of human MAO-A assessed as residual activity at 10 uM
Details: read-out: INH
Kindly supply the reported activity at 10 µM values for the records listed here.
Numbers only, in %.

[[record]]
chem_smiles = "N#CC=C1CCN(c2ccc(N3C[C@H](Cn4cc(F)nn4)OC3=O)cc2F)CC1"
measured_attribute = "activity at 10 µM"
reported_measurement = 50.6

[[record]]
chem_smiles = "CC(C#N)=C1CCN(c2ccc(N3C[C@H](Cn4cc(F)nn4)OC3=O)cc2F)CC1"
measured_attribute = "activity at 10 µM"
reported_measurement = 10.2


Give activity at 10 µM for all compounds that follow.
1. CC(C#N)=C1CCN(c2ccc(N3C[C@H](Cn4ccnn4)OC3=O)cc2F)CC1
2. CC(=O)NC[C@H]1CN(c2ccc(N3CCOCC3)c(F)c2)C(=O)O1
3. N#CC=C1CCN(c2ccc(N3C[C@H](Cn4ccnn4)OC3=O)cc2F)CC1

Resp:
34.8
6.79
3.54

----------
Biological target: CYP1A2 (Homo sapiens, UniProt P05177)
Sequence (P05177 whole entry): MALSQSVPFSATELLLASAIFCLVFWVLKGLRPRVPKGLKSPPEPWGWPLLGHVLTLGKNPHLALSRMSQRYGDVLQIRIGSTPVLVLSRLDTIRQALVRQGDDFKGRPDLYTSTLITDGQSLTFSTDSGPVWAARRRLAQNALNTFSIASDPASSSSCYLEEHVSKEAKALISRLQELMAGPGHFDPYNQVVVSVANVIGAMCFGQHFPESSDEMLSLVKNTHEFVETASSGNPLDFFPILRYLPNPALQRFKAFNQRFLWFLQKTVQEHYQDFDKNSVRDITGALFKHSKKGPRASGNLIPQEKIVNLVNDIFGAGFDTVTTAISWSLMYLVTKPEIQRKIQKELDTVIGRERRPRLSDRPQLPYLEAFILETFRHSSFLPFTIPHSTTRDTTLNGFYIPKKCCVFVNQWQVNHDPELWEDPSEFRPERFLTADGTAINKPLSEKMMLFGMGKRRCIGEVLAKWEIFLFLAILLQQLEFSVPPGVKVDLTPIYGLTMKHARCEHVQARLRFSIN
Assay: Inhibition of CYP1A2 (unknown origin) assessed as residual activity at 10 uM
Format: ADME
Conditions: read-out: INH
Measured attribute: activity at 10 µM (%)
Numbers only, in %.

Reference set (3 entries):
[[record]]
chem_smiles = "CC(C#N)=C1CCN(c2ccc(N3C[C@H](Cn4ccnn4)OC3=O)cc2F)CC1"
measured_attribute = "activity at 10 µM"
reported_measurement = 45.7

[[record]]
chem_smiles = "N#CC=C1CCN(c2ccc(N3C[C@H](Cn4cc(F)nn4)OC3=O)cc2F)CC1"
measured_attribute = "activity at 10 µM"
reported_measurement = 91.8

[[record]]
chem_smiles = "N#CC=C1CCN(c2ccc(N3C[C@H](Cn4ccnn4)OC3=O)cc2F)CC1"
measured_attribute = "activity at 10 µM"
reported_measurement = 55.2


// next item, activity at 10 µM requested
Req: Look at this compound and give its reported activity at 10 µM. CC(C#N)=C1CCN(c2ccc(N3C[C@H](Cn4cc(F)nn4)OC3=O)cc2F)CC1
Resp: 92.8

----------
Target: CYP2C9 (Homo sapiens)
Sequence (P11712 whole entry): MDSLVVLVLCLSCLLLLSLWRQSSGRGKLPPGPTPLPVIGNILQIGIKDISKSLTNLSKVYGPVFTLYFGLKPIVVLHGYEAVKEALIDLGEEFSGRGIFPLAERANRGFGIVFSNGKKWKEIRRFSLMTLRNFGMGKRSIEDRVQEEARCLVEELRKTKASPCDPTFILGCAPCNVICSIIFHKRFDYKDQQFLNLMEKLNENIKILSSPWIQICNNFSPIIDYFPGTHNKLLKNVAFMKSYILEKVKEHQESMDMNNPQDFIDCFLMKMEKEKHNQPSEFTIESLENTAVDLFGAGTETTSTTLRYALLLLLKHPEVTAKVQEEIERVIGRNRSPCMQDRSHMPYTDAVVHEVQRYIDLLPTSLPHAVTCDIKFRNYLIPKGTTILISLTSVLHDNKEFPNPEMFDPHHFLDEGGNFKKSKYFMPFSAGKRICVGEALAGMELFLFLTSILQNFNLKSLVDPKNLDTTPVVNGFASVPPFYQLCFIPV
Experiment: Inhibition of CYP2C9 (unknown origin) assessed as residual activity at 10 uM
Assay type: ADME
Conditions: read-out: INH
Measured attribute: activity at 10 µM (%)
Give bare numbers, in %.

Reference set (3 entries):
[[record]]
chem_smiles = "N#CC=C1CCN(c2ccc(N3C[C@H](Cn4cc(F)nn4)OC3=O)cc2F)CC1"
measured_attribute = "activity at 10 µM"
reported_measurement = 66.6

[[record]]
chem_smiles = "N#CC=C1CCN(c2ccc(N3C[C@H](Cn4ccnn4)OC3=O)cc2F)CC1"
measured_attribute = "activity at 10 µM"
reported_measurement = 88

[[record]]
chem_smiles = "CC(C#N)=C1CCN(c2ccc(N3C[C@H](Cn4cc(F)nn4)OC3=O)cc2F)CC1"
measured_attribute = "activity at 10 µM"
reported_measurement = 64.8


// next item, activity at 10 µM requested
Req: Look at this molecule and give its reported activity at 10 µM. CC(C#N)=C1CCN(c2ccc(N3C[C@H](Cn4ccnn4)OC3=O)cc2F)CC1
Resp: 61.5

----------
Test system: Streptococcus pneumoniae
Experiment: Antibacterial activity against penicillin-resistant Streptococcus pneumoniae C402 by agar dilution method
Type: functional
Measured attribute: MIC
Don't forget the unit after the number, please.

Reference set (4 entries):
[[record]]
chem_smiles = "N#CC1(O)CCN(c2ccc(N3C[C@H](Cn4ccnn4)OC3=O)cc2F)CC1"
measured_attribute = "MIC"
reported_measurement = "0.78 µg/mL"

[[record]]
chem_smiles = "CCOC(=O)CC1=CCN(c2ccc(N3C[C@H](Cn4ccnn4)OC3=O)cc2F)CC1"
measured_attribute = "MIC"
reported_measurement = "1.56 µg/mL"

[[record]]
chem_smiles = "CCOC(=O)C=C1CCN(c2ccc(N3C[C@H](Cn4cc(F)nn4)OC3=O)cc2F)CC1"
measured_attribute = "MIC"
reported_measurement = "6.25 µg/mL"

[[record]]
chem_smiles = "N#CCC1=CCN(c2ccc(N3C[C@H](Cn4ccnn4)OC3=O)cc2F)CC1"
measured_attribute = "MIC"
reported_measurement = "0.39 µg/mL"


Give MIC for all compounds that follow.
1. N#CC1=CCN(c2ccc(N3C[C@H](Cn4cc(F)nn4)OC3=O)cc2F)CC1
2. N#CCC1=CCN(c2ccc(N3C[C@H](Cn4cc(F)nn4)OC3=O)cc2F)CC1
3. CC(C#N)=C1CCN(c2ccc(N3C[C@H](Cn4ccnn4)OC3=O)cc2F)CC1
4. CCOC(=O)C(C)=C1CCN(c2ccc(N3C[C@H](Cn4cc(F)nn4)OC3=O)cc2F)CC1

Resp:
6.25 µg/mL
50 µg/mL
0.19 µg/mL
100 µg/mL

Give MIC for all compounds that follow.
1. N#CC1=CCN(c2ccc(N3C[C@H](Cn4ccnn4)OC3=O)cc2F)CC1
2. CC(=O)NC[C@H]1CN(c2ccc(N3CCC(=CC#N)CC3)c(F)c2)C(=O)O1

Resp:
1.56 µg/mL
0.39 µg/mL

----------
Target: CYP2D6 (Homo sapiens, UniProt P10635)
Sequence (P10635 whole entry): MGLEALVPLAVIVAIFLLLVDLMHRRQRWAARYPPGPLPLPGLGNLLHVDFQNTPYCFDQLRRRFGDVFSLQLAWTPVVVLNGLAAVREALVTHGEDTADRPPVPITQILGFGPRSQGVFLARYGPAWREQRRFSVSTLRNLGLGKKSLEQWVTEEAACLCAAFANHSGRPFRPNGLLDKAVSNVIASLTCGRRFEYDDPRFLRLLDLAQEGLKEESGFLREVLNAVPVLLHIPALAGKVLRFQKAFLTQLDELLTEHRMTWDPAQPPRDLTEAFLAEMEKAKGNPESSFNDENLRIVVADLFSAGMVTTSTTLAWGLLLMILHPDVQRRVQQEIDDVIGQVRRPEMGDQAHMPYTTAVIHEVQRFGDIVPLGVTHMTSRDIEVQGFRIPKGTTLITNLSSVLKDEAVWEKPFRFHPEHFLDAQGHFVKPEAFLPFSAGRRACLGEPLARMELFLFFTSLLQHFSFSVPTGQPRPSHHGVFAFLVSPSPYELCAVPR
Assay: Inhibition of CYP2D6 (unknown origin) assessed as residual activity at 10 uM
Assay type: ADME
Details: read-out: INH
Measured attribute: activity at 10 µM (%)
Numbers only, in %.

Give activity at 10 µM for all compounds that follow.
1. N#CC=C1CCN(c2ccc(N3C[C@H](Cn4ccnn4)OC3=O)cc2F)CC1
2. CC(C#N)=C1CCN(c2ccc(N3C[C@H](Cn4ccnn4)OC3=O)cc2F)CC1

Resp:
1: 80.9; 2: 65.1

Give activity at 10 µM for all compounds that follow.
1. N#CC=C1CCN(c2ccc(N3C[C@H](Cn4cc(F)nn4)OC3=O)cc2F)CC1
2. CC(C#N)=C1CCN(c2ccc(N3C[C@H](Cn4cc(F)nn4)OC3=O)cc2F)CC1

Resp:
[117, 106]

----------
Kindly supply the reported MIC values for the records listed here.
Tested on: Streptococcus pneumoniae
Test: Antibacterial activity against penicillin-resistant Streptococcus pneumoniae C402 by agar dilution method
Type: functional
One number for each entry, in µg/mL.

Reference set (4 entries):
[[record]]
chem_smiles = "CC(=O)NC[C@H]1CN(c2ccc(N3CCOCC3)c(F)c2)C(=O)O1"
units_of_measure = "µg/mL"
reported_measurement = 0.78

[[record]]
chem_smiles = "N#CC1(O)CCN(c2ccc(N3C[C@H](Cn4cc(F)nn4)OC3=O)cc2F)CC1"
units_of_measure = "µg/mL"
reported_measurement = 6.25

[[record]]
chem_smiles = "CCOC(=O)C=C1CCN(c2ccc(N3C[C@H](Cn4ccnn4)OC3=O)cc2F)CC1"
units_of_measure = "µg/mL"
reported_measurement = 6.25

[[record]]
chem_smiles = "CCOC(=O)C(Cl)=C1CCN(c2ccc(N3C[C@H](Cn4cc(F)nn4)OC3=O)cc2F)CC1"
units_of_measure = "µg/mL"
reported_measurement = 100


Req: Look at this compound and give its reported MIC. COC(=O)C=C1CCN(c2ccc(N3C[C@H](Cn4ccnn4)OC3=O)cc2F)CC1
Resp: 0.78
